# Test system: T1, HLA-A*02:01 (human, biotinylated heavy chain)
# T1 construct: Conditional HLA class I complex as for m1
# Experiment notes: UV peptide exchange; HLA class I ELISA;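 also: conditional HLA class I complexes UV-irradiated with peptide, captured on streptavidin wells, intact complex read as HRP anti-B2M absorbance, higher means more binding, control irradiated without rescue peptide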

>  <Binder>
SLYHREKQL [Peptide 4, 9-mer SLYHREKQL derived from P22 (SEQ ID NO: 1003)]

>  <Exch II (%)>
91.2

$$$$
>  <Binder>
KQLIAMDSA [Peptide 9, 9-mer KQLIAMDSA derived from P22 (SEQ ID NO: 1003)]

>  <Exch II (%)>
7.6

$$$$
>  <Binder>
LYHREKQLI [Peptide 5, 9-mer LYHREKQLI derived from P22 (SEQ ID NO: 1003)]

>  <Exch II (%)>
12.3

$$$$
>  <Binder>
SLIAMDSAI [Peptide 3, 9-mer SLIAMDSAI derived from FUS1 (SEQ ID NO: 1001)]

>  <Exch II (%)>
59.7

$$$$
>  <Binder>
YHREKQLIA [Peptide 6, 9-mer YHREKQLIA derived from P22 (SEQ ID NO: 1003)]

>  <Exch II (%)>
18.1

$$$$
>  <Binder>
LIAMDSAIT [Peptide 10, 9-mer LIAMDSAIT derived from P22 (SEQ ID NO: 1003)]

>  <Exch II (%)>
7.1

$$$$
>  <Binder>
IAMDSAITL [Peptide 2, 9-mer IAMDSAITL derived from FUS1 (SEQ ID NO: 1001)]

>  <Exch II (%)>
90.5

$$$$
>  <Binder>
AMDSAITLW [Peptide 1, 9-mer AMDSAITLW derived from FUS1 (SEQ ID NO: 1001)]

>  <Exch II (%)>
9.2

$$$$
>  <Binder>
HREKQLIAM [Peptide 7, 9-mer HREKQLIAM derived from P22 (SEQ ID NO: 1003)]

>  <Exch II (%)>
8.6

$$$$
